Taken from patent US20150284375A1.

study-system: human TRPA1 (Homo sapiens)
Construct: expressed in transfected cells; host or cells: Human embryonic kidney-derived 293T cells, transiently transfected with the pcDNA3.1/zeo(+) human TRPA1 plasmid
assay-procedure: Measurement of TRPA1 antagonist activity (intracellular calcium increase, FLIPR, allylisothiocyanate stimulation)
Assay type: cell-based
recorded-conditions: 293T cells transfected with human TRPA1; allylisothiocyanate 20 μM; concentration for 50% inhibitory rate; read-out: antagonism hTRPA1
Method: Measurement of TRPA1 Antagonist Activity Human TRPA1 Expression Plasmid […] The 384 well plate was recovered, and the medium was removed. […] Then, allylisothiocyanate (12.5 μL) at a final concentration of 20 μM was added by a fluorescence imaging plate reader (manufactured by Molecular Device, FLIPR), and changes in the relative fluorescence intensity were measured for 5 min. […]
parameter: pIC50
Worth noting: pIC50 values are minus log10 of concentrations stated in mol/L.

Please review the entries below; each comes with its answer.
- O=C(NCc1cccc(Oc2ccc(F)cc2)c1)[C@@H]1CCCN1S(=O)(=O)c1ccc(Cl)s1: 6.89
- O=C(NCc1ccccc1COc1cccc(C(F)(F)F)c1)[C@@H]1CCCN1S(=O)(=O)c1ccc(Cl)s1: 6.24

Q: Name the recorded pIC50 for O=C(NCc1ccc(COc2ccccc2)cc1)[C@@H]1CC(O)CN1S(=O)(=O)c1ccc(Cl)s1 (stereo partly shown) .
Ans: 5.11

Q: Fill in the blank: the reported pIC50 of O=C(NCc1ccc(Oc2cccc(C(F)(F)F)c2)c(F)c1)[C@@H]1CCCN1S(=O)(=O)c1ccc(Cl)s1 is ____.
Ans: 6.89

Q: Consider the molecule O=C(NCc1cccc(Oc2cccc(F)c2)c1)[C@@H]1CCCN1S(=O)(=O)c1ccc(Cl)s1 and give its measured pIC50.
Ans: 7.25

Q: Given the molecule O=C(NCc1ccccc1COc1ccc(C(F)(F)F)cc1)[C@@H]1CCCN1S(=O)(=O)c1ccc(Cl)s1 , what is its reported pIC50?
Ans: 6.57

Q: Entry O=C(NCc1cccc(Oc2ccc(C(F)(F)F)cc2)c1)[C@@H]1C=CCN1S(=O)(=O)c1ccc(F)cc1 has what pIC50?
Ans: 7.55

---

study-system: human TRPA1 (Homo sapiens)
Construct: expressed in transfected cells; host or cells: Human embryonic kidney-derived 293T cells, transiently transfected with the pcDNA3.1/zeo(+) human TRPA1 plasmid
assay-procedure: Measurement of TRPA1 antagonist activity (intracellular calcium increase, FLIPR, allylisothiocyanate stimulation)
Type: cell-based
recorded-conditions: 293T cells transfected with human TRPA1; allylisothiocyanate 20 μM; concentration for 50% inhibitory rate; read-out: antagonism hTRPA1
parameter: IC50 (nM)
Respond numerically; units are nM and should not be typed.

Worked cases, answers included:
- O=C(NCc1cccc(COc2ccccc2)c1)[C@@H]1CCCN1S(=O)(=O)c1ccc(Cl)s1: 340
- O=C(NCc1cccc(Oc2ccc(C(F)(F)F)cc2)c1)[C@@H]1CCN1S(=O)(=O)c1ccc(Cl)s1: 150
- O=C(NCc1cccc(OCc2cccc(OC(F)(F)F)c2)c1)[C@@H]1CCCN1S(=O)(=O)c1ccc(Cl)s1: 16

Q: # get_value(readout= IC50, system= human TRPA1 (Homo sapiens)) for COc1ccc(OCc2ccc(CNC(=O)[C@@H]3CCCN3S(=O)(=O)c3ccc(Cl)s3)cc2)cc1
Ans: 670

Q: GET /values?readout=IC50&system=human TRPA1 (Homo sapiens)&item= Cc1cccc(OCc2ccc(CNC(=O)[C@@H]3CCCN3S(=O)(=O)c3ccc(Cl)s3)cc2)c1
Ans: 500

Q: Please tell me: IC50 of O=C(NCc1ccc(COc2ccc(C(F)(F)F)cc2)cc1Cl)[C@@H]1CCCN1S(=O)(=O)c1ccc(Cl)s1 , system human TRPA1 (Homo sapiens)?
Ans: 180

Q: // fetch human TRPA1 (Homo sapiens) IC50 for O=C(NCc1ccc(COc2ccccc2F)cc1)[C@@H]1CCCN1S(=O)(=O)c1ccc(Cl)s1
Ans: 440

Q: Report IC50 for O=C(NCc1cccc(OCc2ccccc2)c1)[C@@H]1CCCN1S(=O)(=O)c1ccc(F)c(F)c1 tested on human TRPA1 (Homo sapiens).
Ans: 76

Q: Enter reported IC50 observed with human TRPA1 (Homo sapiens) for O=C(NCc1ccc(OCc2ccc(C(F)(F)F)cc2)cc1)[C@@H]1CCCN1S(=O)(=O)c1ccc(Cl)s1
Ans: 110

Q: # query: IC50 | item O=C(NCc1ccc(Oc2ccnc(Cl)c2)cc1)[C@@H]1CCCN1S(=O)(=O)c1ccc(Cl)s1 | system: human TRPA1 (Homo sapiens)
Ans: 180

Q: Request: IC50, test system human TRPA1 (Homo sapiens), entry N#Cc1ccc(OCc2ccc(CNC(=O)[C@@H]3CCCN3S(=O)(=O)c3ccc(Cl)s3)cc2)cc1
Ans: 2100

Q: Report IC50 for COc1cccc(OCc2ccc(CNC(=O)[C@@H]3CCCN3S(=O)(=O)c3ccc(Cl)s3)cc2)c1 tested on human TRPA1 (Homo sapiens).
Ans: 550

Q: Which measured IC50 belongs to O=C(NCc1cccc(OCc2ccc(C(F)(F)F)cc2)c1)[C@@H]1CCCN1S(=O)(=O)c1ccc(Cl)cc1 , tested on human TRPA1 (Homo sapiens)?
Ans: 71

Q: Look up IC50 with human TRPA1 (Homo sapiens) for this molecule: O=C(NCc1ccc(COc2ccc(OC(F)(F)F)cc2)cc1)[C@@H]1CCCN1S(=O)(=O)c1ccc(Cl)s1
Ans: 380

Q: I'm curious: which IC50 was measured for O=C(NCc1cccc(Oc2ccc(C(F)(F)F)cc2)c1)C1COCCN1S(=O)(=O)c1ccc(Cl)s1 (stereo not drawn) tested on human TRPA1 (Homo sapiens)?
Ans: 810

---

We begin with a simple list: items and their reported IC50.
study-system: human TRPA1 (Homo sapiens)
Construct: expressed in transfected cells; host or cells: Human embryonic kidney-derived 293T cells, transiently transfected with the pcDNA3.1/zeo(+) human TRPA1 plasmid
assay-procedure: Measurement of TRPA1 antagonist activity (intracellular calcium increase, FLIPR, allylisothiocyanate stimulation)
Type: cell-based
recorded-conditions: 293T cells transfected with human TRPA1; allylisothiocyanate 20 μM; concentration for 50% inhibitory rate; read-out: antagonism hTRPA1
Give just the numeric value; µM need not be written.

Worked set:
• O=C(NCc1cccc(OCc2ccccc2)c1)[C@@H]1C=CCN1S(=O)(=O)c1ccc(Cl)s1 = 0.014
• CN(C)c1cccc(OCc2ccc(CNC(=O)[C@@H]3CCCN3S(=O)(=O)c3ccc(Cl)s3)cc2)c1 = 0.838
• O=C(NCc1cccc(OCc2ccccc2)c1)[C@@H]1CCN1S(=O)(=O)c1ccc(Cl)s1 = 0.12
• O=C(NCc1ccc(Oc2cccc(F)c2)cc1)[C@@H]1CCCN1S(=O)(=O)c1ccc(Cl)s1 = 0.17
• O=C(NCc1c(F)ccc(Oc2ccc(C(F)(F)F)cc2)c1Cl)[C@@H]1CCCN1S(=O)(=O)c1ccc(Cl)s1 = 1.9

Q: What measured IC50 is associated with O=C(NCc1cccc(Oc2ccc(C(F)(F)F)cc2)c1)[C@@H]1CCCN1S(=O)(=O)c1ccc(Cl)s1 on human TRPA1 (Homo sapiens)?
Ans: 0.015

Q: Form entry - test system: human TRPA1 (Homo sapiens); read-out: IC50; molecule: O=C(NCc1ccc(COc2ccc(Cl)cc2)cc1)[C@@H]1CCCN1S(=O)(=O)c1ccc(Cl)s1
Ans: 0.62

---

study-system: human TRPA1 (Homo sapiens, UniProt O75762)
Construct: expressed in transfected cells; host or cells: Human embryonic kidney-derived 293T cells, transiently transfected with the pcDNA3.1/zeo(+) human TRPA1 plasmid
Sequence (O75762 whole entry): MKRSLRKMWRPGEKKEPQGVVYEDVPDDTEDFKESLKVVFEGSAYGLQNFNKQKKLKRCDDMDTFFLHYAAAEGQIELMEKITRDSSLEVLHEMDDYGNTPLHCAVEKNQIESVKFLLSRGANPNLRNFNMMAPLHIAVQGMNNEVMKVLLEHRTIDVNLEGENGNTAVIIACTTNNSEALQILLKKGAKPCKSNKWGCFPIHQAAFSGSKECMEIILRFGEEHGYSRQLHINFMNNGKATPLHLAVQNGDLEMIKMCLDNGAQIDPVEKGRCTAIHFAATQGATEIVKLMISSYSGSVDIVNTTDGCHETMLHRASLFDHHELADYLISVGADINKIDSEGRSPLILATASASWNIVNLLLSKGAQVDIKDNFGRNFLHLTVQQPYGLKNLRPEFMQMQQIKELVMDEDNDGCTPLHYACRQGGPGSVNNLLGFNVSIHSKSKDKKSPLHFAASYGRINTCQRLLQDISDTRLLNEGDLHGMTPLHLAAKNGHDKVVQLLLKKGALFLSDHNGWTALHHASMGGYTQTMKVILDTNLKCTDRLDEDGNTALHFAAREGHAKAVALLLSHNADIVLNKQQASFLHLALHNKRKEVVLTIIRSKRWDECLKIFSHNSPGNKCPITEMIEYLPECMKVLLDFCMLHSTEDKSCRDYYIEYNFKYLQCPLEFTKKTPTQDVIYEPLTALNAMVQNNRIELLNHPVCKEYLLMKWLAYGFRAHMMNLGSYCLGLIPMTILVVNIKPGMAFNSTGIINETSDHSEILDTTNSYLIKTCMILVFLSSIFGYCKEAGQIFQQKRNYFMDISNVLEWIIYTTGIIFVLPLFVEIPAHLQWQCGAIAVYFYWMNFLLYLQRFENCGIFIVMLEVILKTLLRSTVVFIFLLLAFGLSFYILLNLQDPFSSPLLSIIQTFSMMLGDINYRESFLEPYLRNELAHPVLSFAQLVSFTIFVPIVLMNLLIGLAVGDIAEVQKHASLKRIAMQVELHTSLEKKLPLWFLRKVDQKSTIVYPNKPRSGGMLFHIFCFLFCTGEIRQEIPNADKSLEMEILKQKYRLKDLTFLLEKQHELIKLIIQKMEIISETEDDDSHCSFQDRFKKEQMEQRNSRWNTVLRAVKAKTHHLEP
assay-procedure: Measurement of TRPA1 antagonist activity (intracellular calcium increase, FLIPR, allylisothiocyanate stimulation)
Format: cell-based
recorded-conditions: 293T cells transfected with human TRPA1; allylisothiocyanate 20 μM; concentration for 50% inhibitory rate; read-out: antagonism hTRPA1
Entries and their log10(IC50) values follow.
Recall that a logarithmic scale is used here: each number is log10 of IC50 in nM.

* O=C(NCc1ccc(COc2ccccc2)cc1)[C@@H]1CCCN1S(=O)(=O)c1cccs1 [Example 86] | 3.85
* O=C(NCc1ccc(COc2cccc(OC(F)(F)F)c2)cc1)[C@@H]1CCCN1S(=O)(=O)c1ccc(Cl)s1 [Example 52] | 2.32

Could you now consider this next compound?
Q: Need log10(IC50), item O=C(NCc1cccc(Oc2ccc(C(F)(F)F)cc2)c1)[C@@H]1CCCN1S(=O)(=O)c1ccc(F)cc1 [Example 33]
Ans: 1.75

---

study-system: human TRPA1 (Homo sapiens)
Construct: expressed in transfected cells; host or cells: Human embryonic kidney-derived 293T cells, transiently transfected with the pcDNA3.1/zeo(+) human TRPA1 plasmid
assay-procedure: Measurement of TRPA1 antagonist activity (intracellular calcium increase, FLIPR, allylisothiocyanate stimulation)
Assay type: cell-based
recorded-conditions: allylisothiocyanate 20 μM stimulation, FLIPR calcium assay; read-out: antagonism hTRPA1
Quick reference: pIC50 of the listed items.
Please keep in mind that pIC50 is minus log10 of the molar concentration; only the number is needed.

• COc1cccc(S(=O)(=O)N2CCC[C@H]2C(=O)NCc2cccc(OCc3ccc(C(F)(F)F)cc3)c2)c1 = 5.77
• O=C(NCc1cccc(OCc2cccc(C(F)(F)F)n2)c1)[C@@H]1CCCN1S(=O)(=O)c1ccc(F)cc1 = 6.85

Q: Consider the compound shown here: O=C(NCc1cccc(OCc2ccc(C(F)(F)F)cc2)c1)[C@@H]1CCCN1S(=O)(=O)c1ccccc1 What is its recorded pIC50?
Ans: 7.18

Q: Sample O=C(NCc1cccc(OCc2ccc(C(F)(F)F)cc2)c1)[C@@H]1[C@@H](O)CCN1S(=O)(=O)c1ccco1 — what was its pIC50?
Ans: 6.22

Q: Look up pIC50: O=C(NCc1cccc(Oc2ccc(C(F)(F)F)cc2)c1)[C@@H]1CCCN1S(=O)(=O)c1cccc(F)c1
Ans: 7.15

Q: Report pIC50 for C[C@H](Oc1cccc(CNC(=O)[C@@H]2CCCN2S(=O)(=O)c2ccc(F)cc2)c1)c1ccccn1 please.
Ans: 5.08

Q: # input compound: O=C(NCc1cccc(OCc2ccc(C(F)(F)F)cc2)c1)[C@@H]1CCCN1S(=O)(=O)c1cccc2nsnc12 ; wanted: its pIC50
Ans: 5.26

Q: Find the recorded pIC50 belonging to O=C(NCc1ccc(Oc2cccc(C(F)(F)F)c2)cc1)[C@@H]1C=CCN1S(=O)(=O)c1ccc(F)cc1 and report it.
Ans: 6.54

Q: Looking for the measured pIC50 of O=C(NCc1cccc(OCc2ccc(F)c(F)c2)c1)[C@@H]1CCCN1S(=O)(=O)c1ccc(F)cc1 , can you help?
Ans: 7.70
